# Assayed system: huFXII-his (human) (UniProt P00748)
# Sequence (P00748 20-615, form in doubt): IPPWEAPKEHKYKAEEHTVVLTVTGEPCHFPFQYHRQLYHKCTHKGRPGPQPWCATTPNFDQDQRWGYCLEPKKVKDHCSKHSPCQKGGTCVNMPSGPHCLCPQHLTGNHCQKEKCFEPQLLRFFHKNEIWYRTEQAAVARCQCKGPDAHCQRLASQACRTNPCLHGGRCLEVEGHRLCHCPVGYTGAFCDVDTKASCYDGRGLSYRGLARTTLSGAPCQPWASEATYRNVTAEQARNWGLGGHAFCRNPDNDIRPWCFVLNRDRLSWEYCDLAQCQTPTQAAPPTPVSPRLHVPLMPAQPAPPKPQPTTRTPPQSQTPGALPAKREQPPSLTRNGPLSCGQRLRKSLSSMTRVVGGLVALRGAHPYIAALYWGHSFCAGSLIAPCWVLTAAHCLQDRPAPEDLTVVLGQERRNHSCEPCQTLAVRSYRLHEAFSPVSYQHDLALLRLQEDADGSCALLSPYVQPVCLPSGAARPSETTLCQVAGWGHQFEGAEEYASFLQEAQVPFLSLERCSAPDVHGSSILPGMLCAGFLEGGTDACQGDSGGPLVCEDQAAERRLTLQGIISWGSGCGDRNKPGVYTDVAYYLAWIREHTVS
# Experiment description: cell-based or functional assay
# reported IC50 of inhibition of cleavage of chemical substrate S2302 by FXIIa (OD405); entries follow
Give your result as the value with the unit written after it.

{"columns": ["Binder", "Obs value"],
 "data": [
  ["FX-Y17-Y9 (antibody, V domains shown) VH: EVQLLESGGGLVQPGGSLRLSCAGSGFSFGSQTMSWVRQAPGKGLEWVSSISVISGRKYYADSVKGRFTISRDNSKNTLYLQMNSLRAEDTAVYYCAKSHAFDVWGQGTMVTVSS VL: EIVLTQSPATLSVSPGERATLSCRASQSVYSALAWYQQKPGQAPRLLIYGASTRATGIPARFSGSGSGTEFTLTISSLQSEDFAVYYCQQYHKWPLSFGGGTKVEIK", "0.0244 µg/mL"],
  ["FX-Y17-Y10 (antibody, V domains shown) VH: EVQLLESGGGLVQPGGSLRLSCAGSGFSFGSQTMSWVRQAPGKGLEWVSSISVISGRAYYADSVKGRFTISRDNSKNTLYLQMNSLRAEDTAVYYCTKAHAFDVWGQGTMVTVSS VL: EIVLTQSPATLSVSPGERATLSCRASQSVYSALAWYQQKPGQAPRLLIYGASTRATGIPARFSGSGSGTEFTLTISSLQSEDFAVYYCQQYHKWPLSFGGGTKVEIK", "0.028 µg/mL"]
]}

Next binder, please.
Challenge: So what's the measured IC50 of inhibition of cleavage of chemical substrate S2302 by FXIIa (OD405) for this one? FX-Y17-Y46 (antibody, V domains shown) VH: EVQLLESGGGLVQPGGSLRLSCAGSGFSFGSQTMSWVRQAPGKGLEWVSSISYISGRTYYADSVKGRFTISRDNSKNTLYLQMNSLRAEDTAVYYCTKGHAFDVWGQGTMVTVSS VL: EIVLTQSPATLSVSPGERATLSCRASQSVWSNLAWYQQKPGQAPRLLIYGASTRATGIPARFSGSGSGTEFTLTISSLQSEDFAVYYCQQYQKWPLSFGGGTKVEIK
Response given: 0.0321 µg/mL
